assay: Pharmacokinetics in male Balb/C mice (IV and PO); assay type: in vivo; conditions: mouse, plasma, IV. 1 mg/kg, n = 3, read-out: CL (clearance) (converted)
RECORDED ENDPOINT: clearance (mL/min/kg)
Please reply with the bare figure in mL/min/kg and do not write the unit itself.

CNC(=O)Cn1cc(-c2ccc3c(c2)CCC32OC(=O)N(CC(=O)N(Cc3ccc(F)cc3)[C@H]3CCOc4ccccc43)C2=O)cn1 (some centres unmarked)
30

Q: What value of clearance has been recorded for this entry: CNC(=O)Cn1cc(-c2ccc3c(c2)CCC32OC(=O)N(CC(=O)N(Cc3ccc(F)cc3)[C@H]3CCc4cccnc43)C2=O)cn1 (some centres unmarked)
Result: 18.3

----------
assay: Pharmacokinetics in male Balb/C mice (IV and PO); type: in vivo; conditions: mouse, plasma, IV. 1 mg/kg, n = 3, read-out: V ss (0–24 h) (volume of distribution at steady state)
RECORDED ENDPOINT: Vd
Please answer using the number first and the unit second.

CNC(=O)Cn1cc(-c2ccc3c(c2)CCC32OC(=O)N(CC(=O)N(Cc3ccc(F)cc3)[C@H]3CCc4cccnc43)C2=O)cn1 (some centres unmarked)
13.2 L/kg

Pending compound:
Q: What value of Vd has been recorded for this entry: CNC(=O)Cn1cc(-c2ccc3c(c2)CCC32OC(=O)N(CC(=O)N(Cc3ccc(F)cc3)[C@H]3CCOc4ccccc43)C2=O)cn1 (some centres unmarked)
Result: 1 L/kg

----------
Listed here are compounds together with their documented AUC(0-t).
Assay: Pharmacokinetics in male Balb/C mice (IV and PO)
Format: in vivo
Conditions: mouse, plasma, IV. 1 mg/kg, n = 3, read-out: AUC(0–24h)
Experimental: Pharmacokinetic experiments of test compounds were performed in male Balb/C mice similarly to our previous work. The mice were randomly assigned to two groups and were administrated the test compound orally and intravenously, respectively. The test compounds were prepared into 0.5 mg/mL oral solution with 10%PG, 10% ethanol, 10% solutol and 70% normal saline, or 0.1 mg/mL injection solution with 2% PG, 2% ethanol, 2% solutol and 94% normal saline. […]
Please answer using the number first and the unit second.

Q: What value of AUC(0-t) has been recorded for this entry: CNC(=O)Cn1cc(-c2ccc3c(c2)CCC32OC(=O)N(CC(=O)N(Cc3ccc(F)cc3)[C@H]3CCOc4ccccc43)C2=O)cn1 (some centres unmarked) [B16]
Result: 536 ng·h/mL

Q: Thanks! And CNC(=O)Cn1cc(-c2ccc3c(c2)CCC32OC(=O)N(CC(=O)N(Cc3ccc(F)cc3)[C@H]3CCc4cccnc43)C2=O)cn1 (some centres unmarked) [B8] ?
Result: 766 ng·h/mL

----------
assay: Pharmacokinetics in male Balb/C mice (IV and PO); assay type: in vivo; conditions: mouse, plasma, PO. 10 mg/kg vs IV. 1 mg/kg, n = 3, read-out: F (oral bioavailability)
RECORDED ENDPOINT: bioavailability (%)
Please reply with the bare figure in % and do not write the unit itself.

CNC(=O)Cn1cc(-c2ccc3c(c2)CCC32OC(=O)N(CC(=O)N(Cc3ccc(F)cc3)[C@H]3CCc4cccnc43)C2=O)cn1 (some centres unmarked)
21.6

Pending molecule:
Q: What value of bioavailability has been recorded for this entry: CNC(=O)Cn1cc(-c2ccc3c(c2)CCC32OC(=O)N(CC(=O)N(Cc3ccc(F)cc3)[C@H]3CCOc4ccccc43)C2=O)cn1 (some centres unmarked)
Result: 33.2
